# Test method notes: Pharmacokinetic Evaluation in Rats
# Assay type: in vivo
# Experimental setup: rat, oral; male SD rats; administered orally or intravenously; 0.5 mg/mL dosing solution; plasma up to 8 hours; read-out: BA (bioavailability)
Result type: bioavailability

# bioavailability (compound: COC1(c2ccc(/C=C/C[C@H](NC(=O)c3c(Cl)cccc3Cl)C(=O)O)cc2)CCOCC1 ) is 20%

bioavailability for COC1(c2ccc(/C=C/C[C@H](NC(=O)c3c(Cl)cccc3Cl)C(=O)[O-])cc2)CCOCC1.[Na+] is 26.1%

Lab book: bioavailability of CC(C)N(c1ccc(/C=C/C[C@H](NC(=O)c2c(Cl)cccc2Cl)C(=O)O)cc1)c1ncccn1 noted as 40%

The compound CC(C)N(c1ccc(/C=C/C[C@H](NC(=O)c2c(Cl)cccc2Cl)C(=O)[O-])cc1)c1ncccn1.[Na+] showed bioavailability equal to 58.5%

Measured bioavailability of CN(c1ccc(/C=C/C[C@H](NC(=O)c2c(Cl)cccc2Cl)C(=O)[O-])cc1)c1ncccn1.[Na+] : 50.9%

Consider CN(c1ccc(/C=C/C[C@H](NC(=O)c2c(Cl)cccc2Cl)C(=O)O)cc1)c1ncccn1 . Its measured bioavailability is 47.6%

Where these numbers come from: patent US7879837B2
